assay: OD615 S. cerevisiae growth inhibition, permissive medium, pilot counter-assay, permissive growth control for S. cerevisiae lifespan shortening project (AID 705); details: OD615, 24 h, at 10 µM, active compounds read high
The source made the active and inactive calls.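 How the source made its calls: active means growth inhibition above 25% in both replicates, a cutoff set 3 SD above the mean; inconclusive means above 25% in only one replicate; inactive means the rest.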
Item-by-item account of growth inhibition
property name: growth inhibition

>>> print(df.to_string())
                                    compound              result
 0  COc1ccc(OC)c(NC(=O)C2CCCN(S(=O)(=O)c3cccc4cccnc34)C2)c1 (stereo not drawn)   -12.7% (inactive)
 1             CC1(C)CC(=O)C=C(Nc2ccccc2F)C1   -10.4% (inactive)
 2  C=CCn1c(SCC(=O)NCc2ccco2)nc2sc3c(c2c1=O)CCC3   -1.65% (inactive)
 3  Cc1ccc(-c2nc3cccnc3o2)cc1NC(=O)COc1ccc(Cl)cc1C   -19.4% (inactive)
 4  O=C(CCCOc1ccccc1)NCC1CCCO1 (stereo not drawn)   -3.87% (inactive)
 5     COc1ccc(OC)c(CN2CCN(c3ccccc3OC)CC2)c1   -7.27% (inactive)
 6  CCOc1cc(-c2nc(-c3ccncc3)no2)cc(OCC)c1OCC   -5.04% (inactive)
 7  COc1ccccc1S(=O)Cc1ccc(C(=O)NC2CCCC2)o1 (stereo not drawn)     4.5% (inactive)
 8  COc1cccc(NC(=O)Nc2nnc(N3CCCCC3C)s2)c1 (stereo not drawn)   -2.52% (inactive)
 9  COc1cccc(C2CC(=O)N3CN(c4ccccc4F)CSC3=C2C#N)c1 (stereo not drawn)    6.38% (inactive)
10  COC(=O)C(CC(C)C)Oc1ccc2c(C)cc(=O)oc2c1 (stereo not drawn)   -10.5% (inactive)
11  O=C(CCCOc1ccccc1)Nc1nnc(C2CCCO2)s1 (stereo not drawn)   -23.6% (inactive)
12  Cc1ccccc1-n1c(Cn2c(=O)sc3ccccc32)nnc1SCC(=O)Nc1nccs1    -3.9% (inactive)
13             Cc1c(C(=O)N2CCCCC2)sc(N)c1C#N    4.06% (inactive)
14  Cn1cc(S(=O)(=O)CC(=O)Nc2ccc3c(c2)OCCO3)c2ccccc21   -14.9% (inactive)
15  COc1cccc(-c2nc(CS(=O)CC(=O)O)c(C)o2)c1 (stereo not drawn)   -1.73% (inactive)
16                  Brc1ccc(CSc2ncn[nH]2)cc1  -0.435% (inactive)
17              O=C1CCCc2c1[nH]c1c(Br)cccc21    5.96% (inactive)
18                    O=C1CSC(=S)N1Cc1cccnc1   -15.3% (inactive)
19  Cc1cccc(N2CCN(c3nc4ccccc4n4cnnc34)CC2)c1C   -11.7% (inactive)
20  O=C1c2ccccc2S(=O)(=O)N1CC(O)COc1ccc(Br)cc1 (stereo not drawn)   -2.32% (inactive)
21  C=CCOC(=O)c1[nH]c2c(c1C)C(=O)CC(c1cc(OC)c(OC)c(OC)c1)C2 (stereo not drawn)    1.75% (inactive)
22    Cc1ccccc1-n1c(=O)cc(N2CCCCCC2)[nH]c1=O   -4.08% (inactive)
23  N#CC1=C2SCN(Cc3ccco3)CN2C(=O)CC1c1c(F)cccc1Cl (stereo not drawn)   -2.04% (inactive)
24     Cc1cccc(-n2ncc3c(NCc4ccccc4)ncnc32)c1    5.07% (inactive)
25  CCc1nnc(NC(=O)c2ccc(S(=O)(=O)N(CC)CC)cc2)s1   -7.41% (inactive)
26           CC(=O)Nc1cc(NC(C)=O)c(CC(C)C)s1   -6.92% (inactive)
27  CCOC(=O)N1CCN(C(=O)CN(c2cccc(C)c2)S(=O)(=O)c2ccccc2)CC1   -9.07% (inactive)
28        Cc1cc(NS(=O)(=O)c2ccccc2)cc(Cl)c1O   -22.9% (inactive)
29  CC(Oc1ccccc1F)C(=O)NCCN1CCCCC1 (stereo not drawn)   -9.04% (inactive)
30  COC(=O)c1cn(NC(=O)c2ccncc2)c(=O)c2ccccc12   -0.73% (inactive)
31          CC(=O)c1cccc(NC(=O)c2cc(C)no2)c1   -4.53% (inactive)
32                 COc1cc2c(cc1NC(C)=O)CCCC2    -5.3% (inactive)
33  CCN(CC)C(=O)C(C)N(C#N)c1nc(NC(C)C)nc(NC(C)C)n1 (stereo not drawn)   -9.32% (inactive)
34                        Brc1[nH]nc2ccccc12   -1.23% (inactive)
35   COc1ccc(N=C(N(C)C)P(=O)(N(C)C)N(C)C)cc1   -5.46% (inactive)
36  CCn1cc(C(=O)NCCCN2CCC(C)CC2)c2cc(OC)c(OC)cc2c1=O   -7.74% (inactive)
37       CCOC(=O)c1c(C)oc2cc(Br)c(O)c(Br)c12     -19% (inactive)
38       O=C(O)c1ccc(CSc2nnc(-c3ccco3)o2)cc1    7.71% (inactive)
39  CN(C)C(CNC(=O)c1cccs1)c1cccnc1 (stereo not drawn)   -14.2% (inactive)
40  CCOC(=O)CNS(=O)(=O)CCN1C(=O)c2ccccc2C1=O   -8.36% (inactive)
41   O=C(c1ccccc1S(=O)(=O)NCc1ccccc1)N1CCCC1     -12% (inactive)
42                 CC(C)CN(CC(C)C)c1nnc(N)s1    3.15% (inactive)
43  CN1C(=O)C(O)(CC(=O)c2cccnc2)c2ccccc21 (stereo not drawn)   -7.06% (inactive)
44  Cc1csc(SCC(=O)c2ccc(S(=O)(=O)N3CCOCC3)cc2)n1    0.36% (inactive)
45          Clc1nc2sccn2c1/C=N/n1cnc2ccccc21    19.9% (inactive)
46  Cc1ccc2oc(=O)c3cnn(CC(=O)NC4CCN(Cc5ccccc5)CC4)c3c2c1   -4.11% (inactive)
47  Cc1cccc(Cn2c(N(C)Cc3ccccc3)nc3c2c(=O)[nH]c(=O)n3C)c1  -0.355% (inactive)

Values were extracted from PubChem BioAssay.
